experiment: Tmax in Sprague-Dawley rat at 15 mg/kg, po; format: ADME, organism-based; design: dose 15 mg/kg, route oral; conditions: in vivo
REPORTED_METRIC: Tmax (min)
// note: answer is a bare numeric in min

Recorded Tmax for CCCCn1c(=O)c2cccnc2n1Cc1ccc(-c2ccccc2-c2nn[nH]n2)cc1 , please?
30

---

assay: in vitro; conditions: human, Caco-2
Description: Permeability from apical to basolateral side of human Caco-2 cell membrane
REPORTED_METRIC: Papp A→B (×10⁻⁶ cm/s)
// note: answer is a bare numeric in ×10⁻⁶ cm/s

Consider the worked cases shown below.
CCCCn1c(=O)c2cccnc2n1Cc1ccc(-c2ccccc2-c2nn[nH]n2)cc1	1.78
CCCCn1c2nc(C)ccc2c(=O)n1Cc1ccc(-c2ccccc2-c2nn[nH]n2)cc1	8.7
CCCCn1c(=O)c2cc(Cl)cnc2n1Cc1ccc(-c2ccccc2-c2nnn[nH]2)cc1	10.8

Recorded Papp A→B for CCCCC1c2ncccc2C(=O)N1Cc1ccc(-c2ccccc2-c2nn[nH]n2)cc1 (stereo not given) , please?
5.6

Also check CCCCn1c2ncccc2c(=O)n1Cc1ccc(-c2ccccc2-c2nnn[nH]2)cc1
3.6

---

experiment: AUC in Sprague-Dawley rat at 15 mg/kg, po; assay type: ADME, organism-based; parameters: dose 15 mg/kg, route oral; details: plasma
REPORTED_METRIC: AUC (ng·h/mL)
// note: answer is a bare numeric in ng·h/mL

Recorded AUC for CCCCn1c(=O)c2cccnc2n1Cc1ccc(-c2ccccc2-c2nn[nH]n2)cc1 , please?
3380

---

target: Type-1 angiotensin II receptor A (Rattus norvegicus); experiment: Displacement of [125I]Sar1,Ile8-Ang2 from AT1 receptor in Wistar rat hepatic membrane
pIC50: −log10 of the molar value.
Rule: satisfied for pIC50 not less than 7, not satisfied for anything less.

CCCCn1c(=O)c2ccc(OC)nc2n1Cc1ccc(-c2ccccc2-c2nnn[nH]2)cc1	not satisfied
CCc1nc2c(C)cc(C)nc2n1Cc1ccc(-c2ccccc2-c2nnn[nH]2)cc1	satisfied

Textbook exercise: given the entry CCc1nc2c(C)cc(C)nc2n1Cc1ccc(-c2c(-c3nnn[nH]3)cnc3ccccc23)cc1 , state whether its pIC50 is greater than or equal to 7.
satisfied

Also check CCCCn1c(=O)c2ccc(N3CCOCC3)nc2n1Cc1ccc(-c2ccccc2-c2nnn[nH]2)cc1
not satisfied

Also check CCCc1nc2c(C)cc(C)nc2n1Cc1ccc(-c2ccccc2-c2nn[nH]n2)cc1
satisfied

Also check O=C1c2cccnc2CN1Cc1ccc(-c2ccccc2-c2nn[nH]n2)cc1
not satisfied

---

test: Oral bioavailability in Sprague-Dawley rat at 15 mg/kg; format: ADME, organism-based; details: in vivo
REPORTED_METRIC: bioavailability (%)
// note: answer is a bare numeric in %

Recorded bioavailability for CCCCn1c(=O)c2cccnc2n1Cc1ccc(-c2ccccc2-c2nn[nH]n2)cc1 , please?
80

---

assay: Half life in Sprague-Dawley rat at 15 mg/kg, po; assay type: ADME, organism-based; parameters: dose 15 mg/kg, route oral; settings: in vivo
REPORTED_METRIC: half-life

Recorded half-life for CCCCn1c(=O)c2cccnc2n1Cc1ccc(-c2ccccc2-c2nn[nH]n2)cc1 , please?
54 min

---

System: Type-1 angiotensin II receptor A (Rattus norvegicus, UniProt P25095) | Read-out: pKi
Sequence (P25095 whole entry): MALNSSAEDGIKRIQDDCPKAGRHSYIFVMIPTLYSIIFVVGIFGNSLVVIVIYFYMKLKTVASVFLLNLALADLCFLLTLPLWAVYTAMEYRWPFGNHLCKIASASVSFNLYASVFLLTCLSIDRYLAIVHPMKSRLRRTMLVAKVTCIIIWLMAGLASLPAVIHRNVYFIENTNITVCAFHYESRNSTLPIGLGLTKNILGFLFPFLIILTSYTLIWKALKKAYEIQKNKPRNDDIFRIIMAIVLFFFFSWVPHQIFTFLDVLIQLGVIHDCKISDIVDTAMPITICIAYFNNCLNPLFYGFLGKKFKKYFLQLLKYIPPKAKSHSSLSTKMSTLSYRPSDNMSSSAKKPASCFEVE
Hey, just a heads up that pKi is the negative log base 10 of the concentration in molar.

CCCCN1C(=O)C2(CCCC2)CC(=O)N1Cc1ccc(-c2ccccc2-c2nnn[nH]2)cc1	7.10

In the following, a different compound is considered.
Recorded pKi for CCCCN1C(=O)C2(CCCC2)C(=O)N1Cc1ccc(-c2ccccc2-c2nn[nH]n2)cc1 , please?
7.60
